B1: KIAA1671 peptide 600-615 (Uncharacterized protein KIAA1671), 16-mer library wild type / MDM2 SWIB (MDM2 SWIB/MDM2 domain, residues 17-125) (parent)
chain 1: TPEDDRSFQTVWATVF
chain 2: SQIPASEQETLVRPKPLLLKLLKSVGAQKDTYTMKEVLFYLGQYIMTKRLYDEKQQHIVYCSNDLLGDLFGVPSFSVKEHRKIYTMIYRNLVVVNQQESSDSGTSVSEN

Variants of: B1
Experiment: proteomic peptide phage display deep mutational scan (ProP-PD DMS): M13 P8 16-mer library selected against immobilised GST-tagged bait for four days (rounds), NGS of the eluted pools per day and pseudo-replica
Details: with MDM2 SWIB (MDM2 SWIB/MDM2 domain, residues 17-125); bait immobilised on MaxiSorp plates (10 µg), library pre-cleared on GST, 2 h binding at 4 °C, five washes; one round per day, days 1-4; value from days 2 and 3; keep out of graded; scale: average fractional NGS count over selection days 2 and 3
MEASURED_PARAMETER: screen value

chain 1 T10L; 6.08e-05
chain 1 A13W; 0.000391
chain 1 W12D; 0
chain 1 V15N; 0
chain 1 V15P; 0
chain 1 D5Q; 2.45e-05
chain 1 T10Y; 0.000166
chain 1 R6Q; 0.000155
chain 1 D5M; 0.000189
chain 1 E3H; 0.000765
chain 1 F8M; 0.000128
